The reported measurements were obtained from patent US8143212B2.

test system: Candida albicans SKF 2270; test: MIC by broth microdilution (NCCLS) (Tables 42, 44); type: cell-based; details: Candida albicans SKF 2270 (Table 42)
Listed here: items and their measured MIC.

{"columns": ["compound", "result"],
 "data": [
  ["CN[C@H]1C(=O)N[C@@H]2Cc3ccc(cc3)Oc3cc4cc(c3O[C@@H]3O[C@H](C(=O)O)[C@@H](O)[C@H](O)[C@H]3NC(=O)CCCCCCCC(C)C)Oc3ccc(cc3Cl)[C@@H](O)[C@@H]3NC(=O)[C@H](NC(=O)[C@@H]4NC(=O)[C@@H](NC2=O)c2cc(cc(O)c2Cl)Oc2cc1ccc2O)c1ccc(O)c(c1)-c1c(O[C@H]2O[C@H](CO)[C@@H](O)[C@H](O)[C@@H]2O)cc(O)cc1[C@@H](C(=O)NCCCN(C)C)NC3=O [Composition A0]", ">64 mg/L"],
  ["CC1(C)S[C@@H]2[C@H](NC(=O)Cc3ccccc3)C(=O)N2[C@H]1C(=O)O [Penicillin G]", ">32 mg/L"],
  ["CCCCCCCCCCCC(=O)N[C@H]1[C@H](Oc2c3cc4cc2Oc2ccc(cc2Cl)[C@@H](O)[C@@H]2NC(=O)[C@H](NC(=O)[C@@H]4NC(=O)[C@H]4NC(=O)[C@@H](Cc5ccc(cc5)O3)NC(=O)[C@H](NC)c3ccc(O)c(c3)Oc3cc(O)c(Cl)c4c3)c3ccc(O)c(c3)-c3c(O[C@H]4O[C@H](CO)[C@@H](O)[C@H](O)[C@@H]4O)cc(O)cc3[C@@H](C(=O)NCCCN(C)C)NC2=O)O[C@H](C(=O)O)[C@@H](O)[C@@H]1O [Composition B1]", ">64 mg/L"],
  ["CN[C@H]1C(=O)N[C@@H]2Cc3ccc(cc3)Oc3cc4cc(c3O[C@@H]3O[C@H](C(=O)O)[C@@H](O)[C@H](O)[C@H]3NC(=O)CCCCCCCCC(C)C)Oc3ccc(cc3Cl)[C@@H](O)[C@@H]3NC(=O)[C@H](NC(=O)[C@@H]4NC(=O)[C@@H](NC2=O)c2cc(cc(O)c2Cl)Oc2cc1ccc2O)c1ccc(O)c(c1)-c1c(O[C@H]2O[C@H](CO)[C@@H](O)[C@H](O)[C@@H]2O)cc(O)cc1[C@@H](C(=O)NCCCN(C)C)NC3=O [Composition B0]", ">64 mg/L"]
]}

Let us examine a further case.
Looking up C[C@@H]1[C@H](O)[C@@H](C)/C=C/C=C/C=C/C=C/C=C/C=C/C=C/[C@H](O[C@@H]2O[C@H](C)[C@@H](O)[C@H](N)[C@@H]2O)C[C@@H]2O[C@](O)(C[C@@H](O)C[C@@H](O)[C@H](O)CC[C@@H](O)C[C@@H](O)CC(=O)O[C@H]1C)C[C@H](O)[C@H]2C(=O)O [Amphotericin B] , I see its MIC listed as 0.125 mg/L

* * *

assay: clinical; settings: human, in vivo, 1120 mg, AUC
measured.attribute: AUC (µg·h/mL)
Report the figure in µg·h/mL without appending any unit label.

Looking up `CN[C@H]1C(=O)N[C@@H]2Cc3ccc(cc3)Oc3cc4cc(c3O[C@@H]3O[C@H](C(=O)O)[C@@H](O)[C@H](O)[C@H]3NC(=O)CCCCCCCCC(C)C)Oc3ccc(cc3Cl)[C@@H](O)[C@@H]3NC(=O)[C@H](NC(=O)[C@@H]4NC(=O)[C@@H](NC2=O)c2cc(cc(O)c2Cl)Oc2cc1ccc2O)c1ccc(O)c(c1)-c1c(O[C@H]2O[C@H](CO)[C@@H](O)[C@H](O)[C@@H]2O)cc(O)cc1[C@@H](C(=O)NCCCN(C)C)NC3=O` , I see its AUC listed as 25800

* * *

tested on: gram positive bacteria; test: MIC by broth microdilution (NCCLS), with or without 30% bovine serum (Table 42); format: cell-based; settings: Bacillus subtilis ATCC 6633
measured.attribute: MIC

{"columns": ["compound.smiles", "result"],
 "data": [
  ["CN[C@H]1C(=O)N[C@@H]2Cc3ccc(cc3)Oc3cc4cc(c3O[C@@H]3O[C@H](C(=O)O)[C@@H](O)[C@H](O)[C@H]3NC(=O)CCCCCCCCC(C)C)Oc3ccc(cc3Cl)[C@@H](O)[C@@H]3NC(=O)[C@H](NC(=O)[C@@H]4NC(=O)[C@@H](NC2=O)c2cc(cc(O)c2Cl)Oc2cc1ccc2O)c1ccc(O)c(c1)-c1c(O[C@H]2O[C@H](CO)[C@@H](O)[C@H](O)[C@@H]2O)cc(O)cc1[C@@H](C(=O)NCCCN(C)C)NC3=O", "≦0.06 mg/L"],
  ["CN[C@H]1C(=O)N[C@@H]2Cc3ccc(cc3)Oc3cc4cc(c3O[C@@H]3O[C@H](C(=O)O)[C@@H](O)[C@H](O)[C@H]3NC(=O)CCCCCCCC(C)C)Oc3ccc(cc3Cl)[C@@H](O)[C@@H]3NC(=O)[C@H](NC(=O)[C@@H]4NC(=O)[C@@H](NC2=O)c2cc(cc(O)c2Cl)Oc2cc1ccc2O)c1ccc(O)c(c1)-c1c(O[C@H]2O[C@H](CO)[C@@H](O)[C@H](O)[C@@H]2O)cc(O)cc1[C@@H](C(=O)NCCCN(C)C)NC3=O", "≦0.06 mg/L"]
]}

* * *

assay: clinical; conditions: human, in vivo, 1000 mg, CL
measured.attribute: clearance (mL/min)
Report the figure in mL/min without appending any unit label.

Looking up CN[C@H]1C(=O)N[C@@H]2Cc3ccc(cc3)Oc3cc4cc(c3O[C@@H]3O[C@H](C(=O)O)[C@@H](O)[C@H](O)[C@H]3NC(=O)CCCCCCCCC(C)C)Oc3ccc(cc3Cl)[C@@H](O)[C@@H]3NC(=O)[C@H](NC(=O)[C@@H]4NC(=O)[C@@H](NC2=O)c2cc(cc(O)c2Cl)Oc2cc1ccc2O)c1ccc(O)c(c1)-c1c(O[C@H]2O[C@H](CO)[C@@H](O)[C@H](O)[C@@H]2O)cc(O)cc1[C@@H](C(=O)NCCCN(C)C)NC3=O [Dalbavancin] , I see its clearance listed as 0.627

* * *

tested on: gram-negative bacteria; assay: MIC by broth microdilution (NCCLS) (Table 42); type: cell-based; details: E. coli ATCC25922 ref. strain
Listed here: items and their measured MIC.

Looking up `CCCCCCCCCCCC(=O)N[C@H]1[C@H](Oc2c3cc4cc2Oc2ccc(cc2Cl)[C@@H](O)[C@@H]2NC(=O)[C@H](NC(=O)[C@@H]4NC(=O)[C@H]4NC(=O)[C@@H](Cc5ccc(cc5)O3)NC(=O)[C@H](NC)c3ccc(O)c(c3)Oc3cc(O)c(Cl)c4c3)c3ccc(O)c(c3)-c3c(O[C@H]4O[C@H](CO)[C@@H](O)[C@H](O)[C@@H]4O)cc(O)cc3[C@@H](C(=O)NCCCN(C)C)NC2=O)O[C@H](C(=O)O)[C@@H](O)[C@@H]1O` , I see its MIC listed as >64 µg/mL

Looking up `CN[C@H]1C(=O)N[C@@H]2Cc3ccc(cc3)Oc3cc4cc(c3O[C@@H]3O[C@H](C(=O)O)[C@@H](O)[C@H](O)[C@H]3NC(=O)CCCCCCCCC(C)C)Oc3ccc(cc3Cl)[C@@H](O)[C@@H]3NC(=O)[C@H](NC(=O)[C@@H]4NC(=O)[C@@H](NC2=O)c2cc(cc(O)c2Cl)Oc2cc1ccc2O)c1ccc(O)c(c1)-c1c(O[C@H]2O[C@H](CO)[C@@H](O)[C@H](O)[C@@H]2O)cc(O)cc1[C@@H](C(=O)NCCCN(C)C)NC3=O` , I see its MIC listed as >64 µg/mL

Looking up `C[C@@H]1[C@H](O)[C@@H](C)/C=C/C=C/C=C/C=C/C=C/C=C/C=C/[C@H](O[C@@H]2O[C@H](C)[C@@H](O)[C@H](N)[C@@H]2O)C[C@@H]2O[C@](O)(C[C@@H](O)C[C@@H](O)[C@H](O)CC[C@@H](O)C[C@@H](O)CC(=O)O[C@H]1C)C[C@H](O)[C@H]2C(=O)O` , I see its MIC listed as >64 µg/mL

Looking up `CN[C@H]1C(=O)N[C@@H]2Cc3ccc(cc3)Oc3cc4cc(c3O[C@@H]3O[C@H](C(=O)O)[C@@H](O)[C@H](O)[C@H]3NC(=O)CCCCCCCC(C)C)Oc3ccc(cc3Cl)[C@@H](O)[C@@H]3NC(=O)[C@H](NC(=O)[C@@H]4NC(=O)[C@@H](NC2=O)c2cc(cc(O)c2Cl)Oc2cc1ccc2O)c1ccc(O)c(c1)-c1c(O[C@H]2O[C@H](CO)[C@@H](O)[C@H](O)[C@@H]2O)cc(O)cc1[C@@H](C(=O)NCCCN(C)C)NC3=O` , I see its MIC listed as >64 µg/mL

Looking up `CC1(C)S[C@@H]2[C@H](NC(=O)Cc3ccccc3)C(=O)N2[C@H]1C(=O)O` , I see its MIC listed as >32 µg/mL
